Measured normalized SmoIP GFP fluorescence values are reported for all entries that follow.
Test system: Drosophila S2 cl14 SmoIP sensor cells
assay_comment: normalized SmoIP GFP fluorescence (untreated unstimulated = 0%, untreated Hh-stimulated = 100%); higher = more Smo activation sensor fluorescence
particulars: stimulation: Hh conditioned medium (+Hh); compound concentration: 2 uM; 24 h
outcome_measure: normalized SmoIP GFP fluorescence (%)

compound_smiles: CC(=O)Nc1cccc2c1c(Sc1ccc(Cl)cc1)c(C)n2CC(=O)O
experimental_target: Drosophila S2 cl14 SmoIP sensor cells
reading_unit: %
meas_value: 114
//
compound_smiles: COc1ccnc2[nH]cc(C(=O)C(=O)N3CCN(C(=O)c4ccccc4)C[C@H]3C)c12
experimental_target: Drosophila S2 cl14 SmoIP sensor cells
reading_unit: %
meas_value: 142
//
compound_smiles: CCN1CCN(c2ccc(Nc3cc(N(C)C(=O)Nc4c(Cl)c(OC)cc(OC)c4Cl)ncn3)cc2)CC1
experimental_target: Drosophila S2 cl14 SmoIP sensor cells
reading_unit: %
meas_value: 111
//
compound_smiles: CCN1CCN(Cc2ccc(Nc3ncc(F)c(-c4cc(F)c5nc(C)n(C(C)C)c5c4)n3)nc2)CC1
experimental_target: Drosophila S2 cl14 SmoIP sensor cells
reading_unit: %
meas_value: 158
//
compound_smiles: COc1ncc(-c2ccc3nccc(-c4ccnnc4)c3c2)cc1NS(=O)(=O)c1ccc(F)cc1F
experimental_target: Drosophila S2 cl14 SmoIP sensor cells
reading_unit: %
meas_value: 57.4

----------
Measured normalized SmoIP GFP fluorescence by item
System: Drosophila S2 cl14 SmoIP sensor cells;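 note: flow cytometry read-out as median GFP intensity of gated cells, compounds added 30 min before Hh-conditioned or mock medium, mock-treated cells serving as unstimulated baseline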
assay_comment: normalized SmoIP GFP fluorescence (untreated unstimulated = 0%, untreated Hh-stimulated = 100%); higher = more Smo activation sensor fluorescence
particulars: stimulation: Hh conditioned medium (+Hh); compound concentration: 2 uM; 24 h

compound: CCOC(=O)C1=C(C)NC(C)=C(C(=O)OC)C1c1cccc([N+](=O)[O-])c1 (stereo not given)
reading_unit: %
normalized SmoIP GFP fluorescence: 117

compound: CN(Cc1cnc2nc(N)nc(N)c2n1)c1ccc(C(=O)N[C@@H](CCC(=O)O)C(=O)O)cc1 [Abitrexate]
reading_unit: %
normalized SmoIP GFP fluorescence: 200

compound: O=C1CCC(N2C(=O)c3ccccc3C2=O)C(=O)N1 (stereo not given) [Thalidomide]
reading_unit: %
normalized SmoIP GFP fluorescence: 101

compound: Cc1cccc(Nc2cc(Cl)nc(SCC(=O)O)n2)c1C
reading_unit: %
normalized SmoIP GFP fluorescence: 93.8

compound: CNC(=O)c1nn(C)c2c1C(C)(C)Cc1cnc(Nc3ccc(N4CCN(C)CC4)cc3)nc1-2
reading_unit: %
normalized SmoIP GFP fluorescence: 107

compound: C/C(=C\C(=O)Nc1ccccc1C(=O)O)c1ccc2ccccc2c1
reading_unit: %
normalized SmoIP GFP fluorescence: 109

compound: COc1cc2ncnc(Nc3ccc(O)c(Br)c3)c2cc1OC
reading_unit: %
normalized SmoIP GFP fluorescence: 112

compound: NC1(Cc2ccc(Cl)cc2)CCN(c2ncnc3[nH]ccc23)CC1
reading_unit: %
normalized SmoIP GFP fluorescence: 115

compound: CC(C)(O)CC(=O)NCCn1ccc2ncnc(Nc3ccc(Oc4cccc(C(F)(F)F)c4)c(Cl)c3)c21
reading_unit: %
normalized SmoIP GFP fluorescence: 116

compound: CN(NC(=O)CC(=O)NN(C)C(=S)c1ccccc1)C(=S)c1ccccc1
reading_unit: %
normalized SmoIP GFP fluorescence: 145
